Subject of test: Serotonin 5-HT2A (Homo sapiens)
Sequence (P28223 whole entry): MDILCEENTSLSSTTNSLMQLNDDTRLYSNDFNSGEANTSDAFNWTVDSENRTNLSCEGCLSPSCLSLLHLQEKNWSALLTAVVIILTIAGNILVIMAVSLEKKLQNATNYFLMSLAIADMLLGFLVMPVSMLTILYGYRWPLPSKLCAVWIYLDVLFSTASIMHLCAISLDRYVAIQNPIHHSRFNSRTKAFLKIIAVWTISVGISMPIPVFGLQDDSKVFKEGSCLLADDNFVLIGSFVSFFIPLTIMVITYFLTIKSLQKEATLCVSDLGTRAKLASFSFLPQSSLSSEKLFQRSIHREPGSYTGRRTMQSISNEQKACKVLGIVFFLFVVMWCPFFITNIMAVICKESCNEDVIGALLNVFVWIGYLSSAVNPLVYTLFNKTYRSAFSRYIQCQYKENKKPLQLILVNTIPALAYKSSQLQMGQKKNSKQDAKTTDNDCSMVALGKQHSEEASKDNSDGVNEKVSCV
Assay procedure: Aequorin assay, serotonin 5-HT2A
Condition: CHO-K1 mAeq Gα16, human receptor, agonist mode; read-out: Activity (Agonism: EC50), 5-HT2A
Assay readout: EC50 (nM)
Give your result in nM as a bare value.

IN: Output measured EC50 for this item: CC[C@@H](CO)NC(=O)[C@@H]1C=C2c3cccc4[nH]c(C(F)(F)F)c(c34)C[C@H]2N(C)C1 [2-CF3-sergide]
OUT: 1100

* * *

Subject of test: Serotonin 5-HT1F (Homo sapiens, UniProt P30939)
Sequence (P30939 whole entry): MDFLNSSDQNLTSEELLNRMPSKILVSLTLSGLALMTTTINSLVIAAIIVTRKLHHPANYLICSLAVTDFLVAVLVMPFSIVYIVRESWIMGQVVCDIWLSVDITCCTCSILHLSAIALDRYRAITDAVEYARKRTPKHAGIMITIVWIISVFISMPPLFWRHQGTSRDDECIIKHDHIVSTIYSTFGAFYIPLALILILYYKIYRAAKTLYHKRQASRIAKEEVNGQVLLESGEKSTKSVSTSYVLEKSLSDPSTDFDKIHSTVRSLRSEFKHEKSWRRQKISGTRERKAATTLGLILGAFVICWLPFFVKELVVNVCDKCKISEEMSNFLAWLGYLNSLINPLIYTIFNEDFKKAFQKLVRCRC
Assay procedure: cAMP HTRF assay, serotonin 5-HT1F
Condition: CHO-K1, human receptor, agonist mode; read-out: Activity (Agonism: EC50), 5-HT1F
Assay readout: EC50 (µM)
Give your result in µM as a bare value.

IN: Output measured EC50 for this item: CC[C@@H](CO)NC(=O)[C@@H]1C=C2c3cccc4[nH]c(C(F)(F)F)c(c34)C[C@H]2N(C)C1 [2-CF3-sergide]
OUT: 0.254

* * *

Subject of test: Serotonin 5-HT2B (Homo sapiens, UniProt P41595)
Sequence (P41595 whole entry): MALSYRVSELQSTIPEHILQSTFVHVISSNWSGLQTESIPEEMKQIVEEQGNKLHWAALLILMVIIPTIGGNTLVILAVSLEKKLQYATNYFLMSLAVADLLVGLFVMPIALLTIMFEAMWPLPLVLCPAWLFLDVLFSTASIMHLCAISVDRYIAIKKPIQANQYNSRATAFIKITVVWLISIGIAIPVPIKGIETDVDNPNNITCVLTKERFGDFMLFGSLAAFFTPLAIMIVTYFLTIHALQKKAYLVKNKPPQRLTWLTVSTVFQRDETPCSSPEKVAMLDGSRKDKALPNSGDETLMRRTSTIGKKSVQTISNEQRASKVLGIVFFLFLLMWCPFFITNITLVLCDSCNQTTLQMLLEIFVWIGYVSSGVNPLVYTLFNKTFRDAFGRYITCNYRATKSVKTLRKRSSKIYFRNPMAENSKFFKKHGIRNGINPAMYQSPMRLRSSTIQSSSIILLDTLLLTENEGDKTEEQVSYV
Assay procedure: Aequorin assay, serotonin 5-HT2B
Condition: CHO-K1 mAeq Gα16, human receptor, antagonist mode; read-out: Activity (Antagonism: IC50), 5-HT2B
Assay readout: pIC50
Scale: pIC50 equals -log10([C]), with [C] in mol/L.

IN: Output measured pIC50 for this item: CC[C@@H](CO)NC(=O)[C@@H]1C=C2c3cccc4[nH]c(C(F)(F)F)c(c34)C[C@H]2N(C)C1 [2-CF3-sergide]
OUT: 7.38

* * *

Subject of test: Serotonin 5-HT3 (Homo sapiens)
Construct: expressed in transfected cells; host or cells: HEK-293 mAeq
Sequence (P46098 24-478): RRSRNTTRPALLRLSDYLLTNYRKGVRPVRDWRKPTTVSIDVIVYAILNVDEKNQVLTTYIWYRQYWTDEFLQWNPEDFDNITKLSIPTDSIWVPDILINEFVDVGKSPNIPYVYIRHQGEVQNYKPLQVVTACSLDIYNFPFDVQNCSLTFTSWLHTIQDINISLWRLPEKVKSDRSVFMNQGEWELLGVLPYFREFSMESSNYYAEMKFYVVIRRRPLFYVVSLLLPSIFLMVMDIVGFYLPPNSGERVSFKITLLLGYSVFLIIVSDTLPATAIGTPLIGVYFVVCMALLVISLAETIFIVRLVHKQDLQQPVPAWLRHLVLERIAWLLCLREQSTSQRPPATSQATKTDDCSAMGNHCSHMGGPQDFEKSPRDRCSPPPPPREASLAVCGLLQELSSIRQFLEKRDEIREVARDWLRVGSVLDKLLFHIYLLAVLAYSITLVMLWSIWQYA
Assay procedure: Aequorin assay, serotonin 5-HT3
Assay type: cell-based
Condition: HEK-293 mAeq, human receptor, antagonist mode; read-out: Activity (Antagonism: IC50), 5-HT3
Assay readout: IC50

IN: Output measured IC50 for this item: CC[C@@H](CO)NC(=O)[C@@H]1C=C2c3cccc4[nH]c(C(F)(F)F)c(c34)C[C@H]2N(C)C1 [2-CF3-sergide]
OUT: > 1 µM

* * *

Subject of test: Adrenergic α1A (Homo sapiens)
Sequence (P35348 whole entry): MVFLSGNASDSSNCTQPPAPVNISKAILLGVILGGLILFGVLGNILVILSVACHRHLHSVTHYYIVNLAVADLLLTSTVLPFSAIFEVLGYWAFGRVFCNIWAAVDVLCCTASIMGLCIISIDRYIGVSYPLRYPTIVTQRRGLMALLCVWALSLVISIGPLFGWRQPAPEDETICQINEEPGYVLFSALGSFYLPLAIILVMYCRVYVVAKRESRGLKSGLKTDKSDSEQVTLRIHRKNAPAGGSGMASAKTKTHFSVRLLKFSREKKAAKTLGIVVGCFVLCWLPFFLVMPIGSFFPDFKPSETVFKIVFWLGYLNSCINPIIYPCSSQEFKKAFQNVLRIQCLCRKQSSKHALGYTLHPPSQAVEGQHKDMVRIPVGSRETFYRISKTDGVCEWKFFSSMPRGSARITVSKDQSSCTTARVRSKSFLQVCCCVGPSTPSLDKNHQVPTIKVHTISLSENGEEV
Assay procedure: Aequorin agonist/antagonist assay, adrenergic α1A
Condition: CHO-K1 mAeq, human receptor, antagonist mode; read-out: Activity (Antagonism: IC50), Adrenergic a1A
Assay readout: IC50

IN: # return IC50 for CC[C@@H](CO)NC(=O)[C@@H]1C=C2c3cccc4[nH]c(C(F)(F)F)c(c34)C[C@H]2N(C)C1 [2-CF3-sergide] , test system: Adrenergic α1A (Homo sapiens)
OUT: > 10 µM

* * *

Assay readout: IC50

IN: # return IC50 for CC[C@@H](CO)NC(=O)[C@@H]1C=C2c3cccc4[nH]c(C(F)(F)F)c(c34)C[C@H]2N(C)C1 [2-CF3-sergide] , test system: Dopamine D3 (Homo sapiens)
Sequence (P35462 whole entry): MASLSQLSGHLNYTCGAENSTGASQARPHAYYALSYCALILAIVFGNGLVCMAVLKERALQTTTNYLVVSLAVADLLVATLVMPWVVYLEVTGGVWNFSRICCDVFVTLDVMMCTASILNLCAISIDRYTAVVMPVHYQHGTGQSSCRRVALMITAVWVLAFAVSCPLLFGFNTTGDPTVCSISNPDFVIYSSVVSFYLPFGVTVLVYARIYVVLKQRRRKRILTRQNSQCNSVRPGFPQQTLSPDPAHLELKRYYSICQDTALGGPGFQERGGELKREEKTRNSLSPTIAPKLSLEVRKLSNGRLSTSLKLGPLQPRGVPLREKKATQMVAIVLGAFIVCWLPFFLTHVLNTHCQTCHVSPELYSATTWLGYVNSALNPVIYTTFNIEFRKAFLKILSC
OUT: > 1000 nM

* * *

Subject of test: Adrenergic α2A (Homo sapiens, UniProt P08913)
Sequence (P08913 whole entry): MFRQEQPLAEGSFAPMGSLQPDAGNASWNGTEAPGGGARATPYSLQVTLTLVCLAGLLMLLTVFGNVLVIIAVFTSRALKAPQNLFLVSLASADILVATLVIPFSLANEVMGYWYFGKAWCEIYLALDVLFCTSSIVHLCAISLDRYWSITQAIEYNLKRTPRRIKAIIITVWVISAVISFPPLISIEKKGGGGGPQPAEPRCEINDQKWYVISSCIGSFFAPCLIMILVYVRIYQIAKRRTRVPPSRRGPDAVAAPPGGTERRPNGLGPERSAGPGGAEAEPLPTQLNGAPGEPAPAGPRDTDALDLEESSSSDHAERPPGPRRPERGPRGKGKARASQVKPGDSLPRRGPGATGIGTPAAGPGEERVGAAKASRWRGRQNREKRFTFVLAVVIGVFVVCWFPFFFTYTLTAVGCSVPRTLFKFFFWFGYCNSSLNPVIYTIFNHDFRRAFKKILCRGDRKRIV
Assay readout: IC50

IN: Output measured IC50 for this item: CC[C@@H](CO)NC(=O)[C@@H]1C=C2c3cccc4[nH]c(C(F)(F)F)c(c34)C[C@H]2N(C)C1 [2-CF3-sergide]
OUT: > 10 µM

* * *

Subject of test: Adrenergic α2C (Homo sapiens)
Sequence (P18825 1-462): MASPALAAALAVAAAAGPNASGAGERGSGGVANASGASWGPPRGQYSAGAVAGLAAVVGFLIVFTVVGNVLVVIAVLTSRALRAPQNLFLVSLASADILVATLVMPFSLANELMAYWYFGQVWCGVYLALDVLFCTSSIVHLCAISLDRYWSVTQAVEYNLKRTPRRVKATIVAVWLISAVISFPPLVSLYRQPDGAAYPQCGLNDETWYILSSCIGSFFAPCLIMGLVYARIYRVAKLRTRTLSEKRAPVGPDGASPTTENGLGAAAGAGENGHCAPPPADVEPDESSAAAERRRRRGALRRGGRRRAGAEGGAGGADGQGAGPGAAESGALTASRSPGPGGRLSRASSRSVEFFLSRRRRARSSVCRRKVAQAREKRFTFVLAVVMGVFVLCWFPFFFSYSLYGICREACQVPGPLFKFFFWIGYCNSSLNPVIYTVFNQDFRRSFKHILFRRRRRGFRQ
pIC50: −log10 of the molar value.
Assay readout: pIC50

IN: Output measured pIC50 for this item: CC[C@@H](CO)NC(=O)[C@@H]1C=C2c3cccc4[nH]c(C(F)(F)F)c(c34)C[C@H]2N(C)C1 [2-CF3-sergide]
OUT: < 5.00
